Each entry below lists one item and its recorded IC50 value.
- target-or-system: IL-17A/A (Homo sapiens, UniProt Q16552)
- Sequence (Q16552 24-155): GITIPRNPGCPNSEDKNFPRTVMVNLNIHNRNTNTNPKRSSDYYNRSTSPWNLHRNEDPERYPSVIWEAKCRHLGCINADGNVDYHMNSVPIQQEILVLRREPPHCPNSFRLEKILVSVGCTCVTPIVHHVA
- measurement-notes: HEK-Blue IL-17A/A inhibition assay (SEAP reporter)
- assay-setup: HEK-Blue cells (HEK 293 expressing IL-17RA, IL-17RC, Act1); IL-17A/A stimulation; 20 hours; SEAP read at A630; 4-parameter fit

[2H]C([2H])([2H])N(CC(F)(F)F)C(=O)[C@@H](C)c1ccc(NC(=O)[C@@H](NC(=O)c2ccnn2C(C)C)C(C2CC2)C2CC2)c(F)c1: 100 to 1000 nM
CC(C(=O)NCC(F)(F)F)c1cc(F)c(NC(=O)[C@@H](NC(=O)c2ccnn2C(C)C)C(C2CC2)C2CC2)cc1OC(F)(F)F (single isomer, unassigned): < 100 nM
CNCc1cc(NC(=O)[C@@H](NC(=O)c2ccnn2C(C)C)C(C2CC2)C2CC2)c(F)cc1C(C)C(=O)NCC(F)(F)F (some centres unmarked): 100 to 1000 nM

Query :: Given the compound CC(C(=O)NCC(F)(F)F)c1cc(F)c(NC(=O)[C@@H](NC(=O)c2ccnn2C(C)C)C(C2CC2)C2CC2)cc1C(N)=O (single isomer, unassigned) [Compound 117] , what is its reported IC50?
Result :: 100 to 1000 nM

Query :: Would you kindly share the measured IC50 for CC(C)n1nccc1C(=O)N[C@H](C(=O)Nc1ccc([C@H](C)C(=O)N2CCN(C(=O)OC(C)(C)C)CC2C(F)(F)F)cc1F)C(C1CC1)C1CC1 (some centres unmarked) ?
Result :: > 1000 nM

====

Consider the following compounds and their measured IC50 readings.
- target-or-system: IL-17A/A (Homo sapiens)
- measurement-notes: HEK-Blue IL-17A/A inhibition assay (SEAP reporter)
- assay-setup: HEK-Blue cells (HEK 293 expressing IL-17RA, IL-17RC, Act1); IL-17A/A stimulation; 20 hours; SEAP read at A630; 4-parameter fit

Some compounds with recorded IC50:
CC(C)n1nccc1C(=O)N[C@H](C(=O)Nc1ccc([C@H](C)C(=O)N2CC(F)(CO)C2)cc1F)C(C1CC1)C1CC1 [Compound 33]: > 1 µM
CC(C)n1nccc1C(=O)N[C@H](C(=O)Nc1ccc([C@H](C)C(=O)NCC(F)(F)CNC(=O)OC(C)(C)C)cc1F)C(C1CC1)C1CC1 [Compound 35]: > 1 µM
COc1cc(NC(=O)[C@@H](NC(=O)c2ccnn2C(C)C)C(C2CC2)C2CC2)c(F)cc1C(C)C(=O)NCC(F)(F)F (single isomer, unassigned) [Compound 122]: > 1 µM
CC(C(=O)N(C)CC(F)(F)F)c1cc(F)c(NC(=O)[C@@H](NC(=O)c2ccnn2C(C)C)C(C2CC2)C2CC2)cc1N(C)C (single isomer, unassigned) [Compound 162]: < 0.1 µM

Query :: Look up IC50: CC(C)n1nccc1C(=O)N[C@H](C(=O)Nc1ccc([C@H](C)C(=O)NC2CC2C(F)F)cc1F)C(C1CC1)C1CC1 (stereo partly drawn) [Compound 25]
Result :: 0.1 to 1 µM

Query :: Reported IC50 for COc1cc(NC(=O)[C@@H](NC(=O)c2ccnn2C(C)C)C(C2CC2)C2CC2)c(F)cc1C(C)C(=O)NCC(F)(F)F (single isomer, unassigned) [Compound 123] : what is it?
Result :: < 0.1 µM

Query :: // lookup IC50 for CC[C@@H](c1ccc(F)cc1)[C@H](NC(=O)c1ccnn1CC)C(=O)Nc1ccc([C@H](C)C(=O)N(C)CC(F)(F)F)cc1F [Compound 85]
Result :: 0.1 to 1 µM

Query :: If you can, please state the reported IC50 value of CC(C(=O)N(C)CC(F)(F)F)c1cc(F)c(NC(=O)[C@@H](NC(=O)c2ccnn2C(C)C)C(C2CC2)C2CC2)cc1OC(F)(F)F (stereo partly drawn) [Compound 246] .
Result :: > 1 µM

Query :: Entry C[C@H](C(=O)NCC(F)(F)F)c1ccc(NC(=O)[C@@H](NC(=O)c2ccnn2CCN2CC(F)(F)C2)C(C2CC2)C2CC2)c(F)c1 [Compound 94] : reported IC50 = ?
Result :: 0.1 to 1 µM

Query :: Return reported IC50; argument: CC(C(=O)N(CC(N)=O)CC(F)(F)F)c1ccc(NC(=O)[C@@H](NC(=O)c2ccnn2C(C)C)C(C2CC2)C2CC2)c(F)c1 (single isomer, unassigned) [Compound 137]
Result :: < 0.1 µM

Query :: Any idea what IC50 was measured for CC(C(=O)N(C)CC(F)(F)F)c1cc(F)c(NC(=O)[C@@H](NC(=O)c2ccnn2C(C)C)C(C2CC2)C2CC2)cc1CNCCO (stereo partly drawn) [Compound 227] ?
Result :: 0.1 to 1 µM

Query :: Which IC50 is listed for CCN(CC(F)(F)F)C(=O)C(C)c1ccc(NC(=O)[C@@H](NC(=O)c2ccnn2CC)C2CCCCCC2)c(F)c1 (single isomer, unassigned) [Compound 69] ?
Result :: > 1 µM

The reported measurements were obtained from patent US20240376056A1.
